Reported viscosity is given for each of the following compounds.
# conditionLabel: 333.15 K; 101.33 kPa; Liquid; Concentric cylinders viscometry
Numbers after ± are expanded uncertainties.
Your reply should be a number followed by the unit it is expressed in.

1) CCCCCCOS(=O)(=O)[O-].CC[n+]1ccn(C)c1 [3-ethyl-1-methyl-1H-imidazolium hexyl sulfate] = 56.8 ± 2.3 mPa·s
2) CCCCOS(=O)(=O)[O-].CC[n+]1ccn(C)c1 [3-ethyl-1-methylimidazolium butyl sulfate] = 38.4 ± 1.6 mPa·s

Exercise: Entry CCn1cc[n+](C)c1.COS(=O)(=O)[O-] [1-ethyl-3-methylimidazolium methylsulfate] has what viscosity?
Key: 22.6 ± 0.9 mPa·s

Exercise: Entry CCCCCCCCOS(=O)(=O)[O-].CCn1cc[n+](C)c1 [1-ethyl-3-methylimidazolium octyl sulfate] has what viscosity?
Key: 91.6 ± 3.8 mPa·s

Exercise: Entry CCn1cc[n+](C)c1.O=S(=O)([O-])O [1-ethyl-3-methylimidazolium hydrogen sulfate] has what viscosity?
Key: 222.6 ± 9.9 mPa·s

###

# conditionLabel: 314.15 K; 101.33 kPa; Liquid; Vibrating tube method
Reported mass density is given for each of the following compounds.
Please give a number only; it is taken to be in kg/m3.

1. CCn1cc[n+](C)c1.COS(=O)(=O)[O-] [1-ethyl-3-methylimidazolium methylsulfate] = 1275.09
2. CCn1cc[n+](C)c1.O=S(=O)([O-])O [1-ethyl-3-methylimidazolium hydrogen sulfate] = 1356.28
3. CCCCCCOS(=O)(=O)[O-].CC[n+]1ccn(C)c1 [3-ethyl-1-methyl-1H-imidazolium hexyl sulfate] = 1119.7

Exercise: Entry CCCCOS(=O)(=O)[O-].CC[n+]1ccn(C)c1 [3-ethyl-1-methylimidazolium butyl sulfate] has what mass density?
Key: 1165.39

Exercise: Entry CCCCCCCCOS(=O)(=O)[O-].CCn1cc[n+](C)c1 [1-ethyl-3-methylimidazolium octyl sulfate] has what mass density?
Key: 1085.02

###

# conditionLabel: 312.15 K; 101.33 kPa; Liquid; Vibrating tube method
quantityMeasured: mass density (kg/m3)
Please give a number only; it is taken to be in kg/m3.

1. CCn1cc[n+](C)c1.O=S(=O)([O-])O [1-ethyl-3-methylimidazolium hydrogen sulfate] = 1357.52
2. CCCCOS(=O)(=O)[O-].CC[n+]1ccn(C)c1 [3-ethyl-1-methylimidazolium butyl sulfate] = 1166.73
3. CCCCCCCCOS(=O)(=O)[O-].CCn1cc[n+](C)c1 [1-ethyl-3-methylimidazolium octyl sulfate] = 1086.34
4. CCCCCCOS(=O)(=O)[O-].CC[n+]1ccn(C)c1 [3-ethyl-1-methyl-1H-imidazolium hexyl sulfate] = 1121.03

Exercise: Entry CCn1cc[n+](C)c1.COS(=O)(=O)[O-] [1-ethyl-3-methylimidazolium methylsulfate] has what mass density?
Key: 1276.44

###

Reported mass density is given for each of the following compounds.
# conditionLabel: 297.15 K; 101.33 kPa; Liquid; Vibrating tube method
Please give a number only; it is taken to be in kg/m3.

Here are 4 compounds together with their reported answers.
1) CCCCCCOS(=O)(=O)[O-].CC[n+]1ccn(C)c1 [3-ethyl-1-methyl-1H-imidazolium hexyl sulfate] = 1131.09
2) CCCCCCCCOS(=O)(=O)[O-].CCn1cc[n+](C)c1 [1-ethyl-3-methylimidazolium octyl sulfate] = 1096.31
3) CCn1cc[n+](C)c1.COS(=O)(=O)[O-] [1-ethyl-3-methylimidazolium methylsulfate] = 1286.71
4) CCCCOS(=O)(=O)[O-].CC[n+]1ccn(C)c1 [3-ethyl-1-methylimidazolium butyl sulfate] = 1176.93

Now, please, on to the next compound.
Exercise: Entry CCn1cc[n+](C)c1.O=S(=O)([O-])O [1-ethyl-3-methylimidazolium hydrogen sulfate] has what mass density?
Key: 1366.38

###

# conditionLabel: 324.15 K; 101.33 kPa; Liquid; Vibrating tube method
Reported mass density is given for each of the following molecules.
Please give a number only; it is taken to be in kg/m3.

1. CCn1cc[n+](C)c1.COS(=O)(=O)[O-] [1-ethyl-3-methylimidazolium methylsulfate] = 1268.37
2. CCn1cc[n+](C)c1.O=S(=O)([O-])O [1-ethyl-3-methylimidazolium hydrogen sulfate] = 1350.11
3. CCCCOS(=O)(=O)[O-].CC[n+]1ccn(C)c1 [3-ethyl-1-methylimidazolium butyl sulfate] = 1158.76
4. CCCCCCOS(=O)(=O)[O-].CC[n+]1ccn(C)c1 [3-ethyl-1-methyl-1H-imidazolium hexyl sulfate] = 1113.12

Now, please, on to the next molecule.
Exercise: Entry CCCCCCCCOS(=O)(=O)[O-].CCn1cc[n+](C)c1 [1-ethyl-3-methylimidazolium octyl sulfate] has what mass density?
Key: 1078.44

###

# conditionLabel: 321.15 K; 101.33 kPa; Liquid; Vibrating tube method
quantityMeasured: mass density (kg/m3)
Please give a number only; it is taken to be in kg/m3.

Here are 3 compounds together with their reported answers.
1. CCn1cc[n+](C)c1.O=S(=O)([O-])O [1-ethyl-3-methylimidazolium hydrogen sulfate] = 1351.96
2. CCCCCCCCOS(=O)(=O)[O-].CCn1cc[n+](C)c1 [1-ethyl-3-methylimidazolium octyl sulfate] = 1080.4
3. CCCCOS(=O)(=O)[O-].CC[n+]1ccn(C)c1 [3-ethyl-1-methylimidazolium butyl sulfate] = 1160.74

Exercise: Entry CCn1cc[n+](C)c1.COS(=O)(=O)[O-] [1-ethyl-3-methylimidazolium methylsulfate] has what mass density?
Key: 1270.38

Exercise: Entry CCCCCCOS(=O)(=O)[O-].CC[n+]1ccn(C)c1 [3-ethyl-1-methyl-1H-imidazolium hexyl sulfate] has what mass density?
Key: 1115.08

###

# conditionLabel: 347.15 K; 101.33 kPa; Liquid; Vibrating tube method
quantityMeasured: mass density (kg/m3)
Please give a number only; it is taken to be in kg/m3.

Here are 4 compounds together with their reported answers.
1. CCCCOS(=O)(=O)[O-].CC[n+]1ccn(C)c1 [3-ethyl-1-methylimidazolium butyl sulfate] = 1143.78
2. CCn1cc[n+](C)c1.O=S(=O)([O-])O [1-ethyl-3-methylimidazolium hydrogen sulfate] = 1336.14
3. CCCCCCCCOS(=O)(=O)[O-].CCn1cc[n+](C)c1 [1-ethyl-3-methylimidazolium octyl sulfate] = 1063.6
4. CCCCCCOS(=O)(=O)[O-].CC[n+]1ccn(C)c1 [3-ethyl-1-methyl-1H-imidazolium hexyl sulfate] = 1098.3

Now, please, on to the next compound.
Exercise: Entry CCn1cc[n+](C)c1.COS(=O)(=O)[O-] [1-ethyl-3-methylimidazolium methylsulfate] has what mass density?
Key: 1253.19

###

Reported mass density is given for each of the following compounds.
# conditionLabel: 328.15 K; 101.33 kPa; Liquid; Vibrating tube method
Please give a number only; it is taken to be in kg/m3.

Here are 4 compounds together with their reported answers.
1) CCCCCCCCOS(=O)(=O)[O-].CCn1cc[n+](C)c1 [1-ethyl-3-methylimidazolium octyl sulfate] = 1075.83
2) CCn1cc[n+](C)c1.O=S(=O)([O-])O [1-ethyl-3-methylimidazolium hydrogen sulfate] = 1347.65
3) CCCCCCOS(=O)(=O)[O-].CC[n+]1ccn(C)c1 [3-ethyl-1-methyl-1H-imidazolium hexyl sulfate] = 1110.51
4) CCn1cc[n+](C)c1.COS(=O)(=O)[O-] [1-ethyl-3-methylimidazolium methylsulfate] = 1265.71

Now, please, on to the next compound.
Exercise: Entry CCCCOS(=O)(=O)[O-].CC[n+]1ccn(C)c1 [3-ethyl-1-methylimidazolium butyl sulfate] has what mass density?
Key: 1156.12

###

# conditionLabel: 310.15 K; 101.33 kPa; Liquid; Vibrating tube method
quantityMeasured: mass density (kg/m3)
Please give a number only; it is taken to be in kg/m3.

1) CCn1cc[n+](C)c1.O=S(=O)([O-])O [1-ethyl-3-methylimidazolium hydrogen sulfate] = 1358.76
2) CCCCCCOS(=O)(=O)[O-].CC[n+]1ccn(C)c1 [3-ethyl-1-methyl-1H-imidazolium hexyl sulfate] = 1122.36
3) CCn1cc[n+](C)c1.COS(=O)(=O)[O-] [1-ethyl-3-methylimidazolium methylsulfate] = 1277.8
4) CCCCOS(=O)(=O)[O-].CC[n+]1ccn(C)c1 [3-ethyl-1-methylimidazolium butyl sulfate] = 1168.08

Now, please, on to the next compound.
Exercise: Entry CCCCCCCCOS(=O)(=O)[O-].CCn1cc[n+](C)c1 [1-ethyl-3-methylimidazolium octyl sulfate] has what mass density?
Key: 1087.67

###

Reported mass density is given for each of the following compounds.
# conditionLabel: 294.15 K; 101.33 kPa; Liquid; Vibrating tube method
Please give a number only; it is taken to be in kg/m3.

Here are 4 compounds together with their reported answers.
1) CCn1cc[n+](C)c1.COS(=O)(=O)[O-] [1-ethyl-3-methylimidazolium methylsulfate] = 1288.8
2) CCCCOS(=O)(=O)[O-].CC[n+]1ccn(C)c1 [3-ethyl-1-methylimidazolium butyl sulfate] = 1178.99
3) CCCCCCCCOS(=O)(=O)[O-].CCn1cc[n+](C)c1 [1-ethyl-3-methylimidazolium octyl sulfate] = 1098.1
4) CCn1cc[n+](C)c1.O=S(=O)([O-])O [1-ethyl-3-methylimidazolium hydrogen sulfate] = 1368.25

Exercise: Entry CCCCCCOS(=O)(=O)[O-].CC[n+]1ccn(C)c1 [3-ethyl-1-methyl-1H-imidazolium hexyl sulfate] has what mass density?
Key: 1133.12
